tested on: LCLC-97TM1; experiment: relative viability (nuclei count vs DMSO), 5 days (fraction); higher = more cells survive; settings: first compound 0.1265 µM
The label 1 is reserved for relative viability strictly under 0.3; -1 covers values equal to or above it.

compound: Cc1sc2c(c1C)C(c1ccc(Cl)cc1)=N[C@@H](CC(=O)OC(C)(C)C)c1nnc(C)n1-2 [JQ1] + C[C@]1(O)C[C@@H](c2nc(-c3ccc4ccc(-c5ccccc5)nc4c3)c3c(N)nccn32)C1 [Linsitinib] (partner 1 µM)
category.label: 1
--
compound: Cc1sc2c(c1C)C(c1ccc(Cl)cc1)=N[C@@H](CC(=O)OC(C)(C)C)c1nnc(C)n1-2 [JQ1] + CC1(C)CCC(c2ccc(Cl)cc2)=C(CN2CCN(c3ccc(C(=O)NS(=O)(=O)c4ccc(N[C@H](CCN5CCOCC5)CSc5ccccc5)c(S(=O)(=O)C(F)(F)F)c4)cc3)CC2)C1 [Navitoclax] (partner 0.5 µM)
category.label: -1
--
compound: Cc1sc2c(c1C)C(c1ccc(Cl)cc1)=N[C@@H](CC(=O)OC(C)(C)C)c1nnc(C)n1-2 [JQ1] + Cc1cc(Nc2cc(N3CCN(C)CC3)nc(Sc3ccc(NC(=O)C4CC4)cc3)n2)n[nH]1 [Tozasertib] (partner 0.1 µM)
category.label: 1

hey, is relative viability for Cc1sc2c(c1C)C(c1ccc(Cl)cc1)=N[C@@H](CC(=O)OC(C)(C)C)c1nnc(C)n1-2 [JQ1] + Nc1nc2[nH]cc(CCc3ccc(C(=O)N[C@@H](CCC(=O)O)C(=O)O)cc3)c2c(=O)[nH]1 [Pemetrexed] (partner 0.2 µM) lower than 0.3 or not?
1

Could you do the same for Cc1sc2c(c1C)C(c1ccc(Cl)cc1)=N[C@@H](CC(=O)OC(C)(C)C)c1nnc(C)n1-2 [JQ1] + CS(=O)(=O)N1CCN(Cc2cc3nc(-c4cccc5[nH]ncc45)nc(N4CCOCC4)c3s2)CC1 [Pictilisib] (partner 1 µM) , please?
1

Do the same for Cc1sc2c(c1C)C(c1ccc(Cl)cc1)=N[C@@H](CC(=O)OC(C)(C)C)c1nnc(C)n1-2 [JQ1] + CS(=O)(=O)CCNCc1ccc(-c2ccc3ncnc(Nc4ccc(OCc5cccc(F)c5)c(Cl)c4)c3c2)o1 [Lapatinib] (partner 2 µM) please
-1

Query Cc1sc2c(c1C)C(c1ccc(Cl)cc1)=N[C@@H](CC(=O)OC(C)(C)C)c1nnc(C)n1-2 [JQ1] + COc1cccc2cc(-c3nc([C@H]4CC[C@H](C(=O)O)CC4)n4ncnc(N)c34)[nH]c12 [OSI-027] (partner 0.5 µM) next
-1

====

test system: NCI-H1793; experiment: relative viability (nuclei count vs DMSO), 5 days (fraction); higher = more cells survive; conditions: first compound 8 µM
metric.name: relative viability
Could you keep your reply to the number by itself?

Below are worked cases with known answers.
compound: O=c1[nH]c2ccccc2n1C1CCN(CCCC(c2ccc(F)cc2)c2ccc(F)cc2)CC1 [Pimozide] + C[C@]1(O)C[C@@H](c2nc(-c3ccc4ccc(-c5ccccc5)nc4c3)c3c(N)nccn32)C1 [Linsitinib] (partner 1 µM)
relative viability: 0.831
--
compound: O=c1[nH]c2ccccc2n1C1CCN(CCCC(c2ccc(F)cc2)c2ccc(F)cc2)CC1 [Pimozide] + CC1(C)CCC(c2ccc(Cl)cc2)=C(CN2CCN(c3ccc(C(=O)NS(=O)(=O)c4ccc(N[C@H](CCN5CCOCC5)CSc5ccccc5)c(S(=O)(=O)C(F)(F)F)c4)cc3)CC2)C1 [Navitoclax] (partner 0.5 µM)
relative viability: 0.494
--
compound: O=c1[nH]c2ccccc2n1C1CCN(CCCC(c2ccc(F)cc2)c2ccc(F)cc2)CC1 [Pimozide] + CS(=O)(=O)CCNCc1ccc(-c2ccc3ncnc(Nc4ccc(OCc5cccc(F)c5)c(Cl)c4)c3c2)o1 [Lapatinib] (partner 2 µM)
relative viability: 0.654

# query: relative viability of entry O=c1[nH]c2ccccc2n1C1CCN(CCCC(c2ccc(F)cc2)c2ccc(F)cc2)CC1 [Pimozide] + COc1cccc2cc(-c3nc([C@H]4CC[C@H](C(=O)O)CC4)n4ncnc(N)c34)[nH]c12 [OSI-027] (partner 0.5 µM)
0.115

====

system: H3255; assay: relative viability (nuclei count vs DMSO), 5 days (fraction); higher = more cells survive; settings: first compound 0.01581 µM
Doc: threshold 0.6 (exclusive). Items with relative viability beneath it return 1.0; others return 0.0.

Some entries whose results are on file:
compound: Nc1ccn([C@@H]2O[C@H](CO)[C@@H](O)[C@@H]2O)c(=O)n1 [Cytarabine] + CS(=O)(=O)CCNCc1ccc(-c2ccc3ncnc(Nc4ccc(OCc5cccc(F)c5)c(Cl)c4)c3c2)o1 [Lapatinib] (partner 2 µM)
category.label: 1.0
//
compound: COc1cc2nccc(Oc3ccc(NC(=O)Nc4cc(C)on4)c(Cl)c3)c2cc1OC [Tivozanib] + CC(=O)c1c(C)c2cnc(Nc3ccc(N4CCNCC4)cn3)nc2n(C2CCCC2)c1=O [Palbociclib] (partner 0.5 µM)
category.label: 1.0
//
compound: COc1cc2nccc(Oc3ccc(NC(=O)Nc4cc(C)on4)c(Cl)c3)c2cc1OC [Tivozanib] + CC(C)C[C@H](NC(=O)[C@H](Cc1ccccc1)NC(=O)c1cnccn1)B(O)O [Bortezomib] (partner 0.002 µM)
category.label: 0.0
//
compound: Nc1ccn([C@@H]2O[C@H](CO)[C@@H](O)[C@@H]2O)c(=O)n1 [Cytarabine] + CCNC(=O)c1noc(-c2cc(C(C)C)c(O)cc2O)c1-c1ccc(CN2CCOCC2)cc1 [Luminespib] (partner 0.01 µM)
category.label: 0.0
//
compound: Nc1ccn([C@@H]2O[C@H](CO)[C@@H](O)[C@@H]2O)c(=O)n1 [Cytarabine] + C[C@]1(O)C[C@@H](c2nc(-c3ccc4ccc(-c5ccccc5)nc4c3)c3c(N)nccn32)C1 [Linsitinib] (partner 1 µM)
category.label: 0.0

Take the compound Nc1ccn([C@@H]2O[C@H](CO)[C@@H](O)[C@@H]2O)c(=O)n1 [Cytarabine] + Nc1ncn([C@H]2C[C@H](O)[C@@H](CO)O2)c(=O)n1 [Decitabine] (partner 2 µM) and say whether its relative viability is less than 0.6.
1.0

Try the compound Nc1ccn([C@@H]2O[C@H](CO)[C@@H](O)[C@@H]2O)c(=O)n1 [Cytarabine] + CC(C)C[C@H](NC(=O)[C@H](Cc1ccccc1)NC(=O)c1cnccn1)B(O)O [Bortezomib] (partner 0.002 µM)
0.0

Try Nc1ccn([C@@H]2O[C@H](CO)[C@@H](O)[C@@H]2O)c(=O)n1 [Cytarabine] + O=C(c1cc(Cc2n[nH]c(=O)c3ccccc23)ccc1F)N1CCN(C(=O)C2CC2)CC1 [Olaparib] (partner 8 µM) next.
1.0

====

tested on: NCI-H1355; assay: relative viability (nuclei count vs DMSO), 5 days (fraction); higher = more cells survive; settings: first compound 0.05 µM
# relative viability per record follows

Looking for the measured relative viability of COc1cc2nccc(Oc3ccc(NC(=O)Nc4cc(C)on4)c(Cl)c3)c2cc1OC [Tivozanib] + COc1cccc2cc(-c3nc([C@H]4CC[C@H](C(=O)O)CC4)n4ncnc(N)c34)[nH]c12 [OSI-027] (partner 0.5 µM) , can you help?
0.475

Entry to check: COc1cc2nccc(Oc3ccc(NC(=O)Nc4cc(C)on4)c(Cl)c3)c2cc1OC [Tivozanib] + C[C@@H](Oc1cc(-c2cnn(C3CCNCC3)c2)cnc1N)c1c(Cl)ccc(F)c1Cl [Crizotinib] (partner 1 µM)
1.08

Cool, now Nc1ccn([C@@H]2O[C@H](CO)[C@@H](O)[C@@H]2O)c(=O)n1 [Cytarabine] + Cc1cc(Nc2cc(N3CCN(C)CC3)nc(Sc3ccc(NC(=O)C4CC4)cc3)n2)n[nH]1 [Tozasertib] (partner 0.1 µM)
0.484

Moving on to COc1cc2nccc(Oc3ccc(NC(=O)Nc4cc(C)on4)c(Cl)c3)c2cc1OC [Tivozanib] + CC(=O)Nc1cccc(-n2c(=O)n(C3CC3)c(=O)c3c(Nc4ccc(I)cc4F)n(C)c(=O)c(C)c32)c1 [Trametinib] (partner 0.02 µM)
0.455

====

Entries and their relative viability
system: NCI-H727; assay: relative viability (nuclei count vs DMSO), 5 days (fraction); higher = more cells survive; details: first compound 0.5 µM
Reply with the value as a number alone.

Some solved entries appear below for comparison.
molecule: Nc1ccn([C@@H]2O[C@H](CO)[C@@H](O)[C@@H]2O)c(=O)n1 [Cytarabine] + CC(=O)Nc1cccc(-n2c(=O)n(C3CC3)c(=O)c3c(Nc4ccc(I)cc4F)n(C)c(=O)c(C)c32)c1 [Trametinib] (partner 0.02 µM)
observed.value: 0.329

molecule: COc1cc2nccc(Oc3ccc(NC(=O)Nc4cc(C)on4)c(Cl)c3)c2cc1OC [Tivozanib] + CS(=O)(=O)CCNCc1ccc(-c2ccc3ncnc(Nc4ccc(OCc5cccc(F)c5)c(Cl)c4)c3c2)o1 [Lapatinib] (partner 2 µM)
observed.value: 0.787

molecule: Nc1ccn([C@@H]2O[C@H](CO)[C@@H](O)[C@@H]2O)c(=O)n1 [Cytarabine] + Cc1nc(NC(=O)N2CCC[C@H]2C(N)=O)sc1-c1ccnc(C(C)(C)C(F)(F)F)c1 [Alpelisib] (partner 2 µM)
observed.value: 0.159

What measured relative viability goes with COc1cc2nccc(Oc3ccc(NC(=O)Nc4cc(C)on4)c(Cl)c3)c2cc1OC [Tivozanib] + CCNC(=O)c1noc(-c2cc(C(C)C)c(O)cc2O)c1-c1ccc(CN2CCOCC2)cc1 [Luminespib] (partner 0.01 µM) ?
0.609
